Target: Integrin alpha-4/beta-1 (Homo sapiens, UniProt P05556+P13612)
Sequence (P05556 whole entry): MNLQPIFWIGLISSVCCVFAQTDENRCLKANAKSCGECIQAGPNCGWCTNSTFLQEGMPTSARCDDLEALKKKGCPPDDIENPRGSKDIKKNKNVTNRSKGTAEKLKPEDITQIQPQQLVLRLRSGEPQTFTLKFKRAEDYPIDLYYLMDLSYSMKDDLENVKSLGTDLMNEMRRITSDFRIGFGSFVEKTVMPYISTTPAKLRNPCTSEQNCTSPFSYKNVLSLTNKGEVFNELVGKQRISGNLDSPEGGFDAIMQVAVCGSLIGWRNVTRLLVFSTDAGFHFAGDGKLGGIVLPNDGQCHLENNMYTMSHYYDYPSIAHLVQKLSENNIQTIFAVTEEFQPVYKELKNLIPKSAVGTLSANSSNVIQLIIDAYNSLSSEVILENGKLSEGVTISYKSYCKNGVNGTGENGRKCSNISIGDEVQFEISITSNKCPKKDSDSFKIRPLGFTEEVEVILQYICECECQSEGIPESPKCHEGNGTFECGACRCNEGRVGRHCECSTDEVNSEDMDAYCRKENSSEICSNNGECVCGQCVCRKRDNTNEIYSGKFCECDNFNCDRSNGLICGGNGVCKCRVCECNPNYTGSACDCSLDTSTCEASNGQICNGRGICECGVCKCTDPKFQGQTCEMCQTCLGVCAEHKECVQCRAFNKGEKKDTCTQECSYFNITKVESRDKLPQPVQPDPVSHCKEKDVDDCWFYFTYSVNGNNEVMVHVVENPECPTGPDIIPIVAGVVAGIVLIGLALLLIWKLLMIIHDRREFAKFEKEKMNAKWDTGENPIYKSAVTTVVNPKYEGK
Sequence (P13612 whole entry): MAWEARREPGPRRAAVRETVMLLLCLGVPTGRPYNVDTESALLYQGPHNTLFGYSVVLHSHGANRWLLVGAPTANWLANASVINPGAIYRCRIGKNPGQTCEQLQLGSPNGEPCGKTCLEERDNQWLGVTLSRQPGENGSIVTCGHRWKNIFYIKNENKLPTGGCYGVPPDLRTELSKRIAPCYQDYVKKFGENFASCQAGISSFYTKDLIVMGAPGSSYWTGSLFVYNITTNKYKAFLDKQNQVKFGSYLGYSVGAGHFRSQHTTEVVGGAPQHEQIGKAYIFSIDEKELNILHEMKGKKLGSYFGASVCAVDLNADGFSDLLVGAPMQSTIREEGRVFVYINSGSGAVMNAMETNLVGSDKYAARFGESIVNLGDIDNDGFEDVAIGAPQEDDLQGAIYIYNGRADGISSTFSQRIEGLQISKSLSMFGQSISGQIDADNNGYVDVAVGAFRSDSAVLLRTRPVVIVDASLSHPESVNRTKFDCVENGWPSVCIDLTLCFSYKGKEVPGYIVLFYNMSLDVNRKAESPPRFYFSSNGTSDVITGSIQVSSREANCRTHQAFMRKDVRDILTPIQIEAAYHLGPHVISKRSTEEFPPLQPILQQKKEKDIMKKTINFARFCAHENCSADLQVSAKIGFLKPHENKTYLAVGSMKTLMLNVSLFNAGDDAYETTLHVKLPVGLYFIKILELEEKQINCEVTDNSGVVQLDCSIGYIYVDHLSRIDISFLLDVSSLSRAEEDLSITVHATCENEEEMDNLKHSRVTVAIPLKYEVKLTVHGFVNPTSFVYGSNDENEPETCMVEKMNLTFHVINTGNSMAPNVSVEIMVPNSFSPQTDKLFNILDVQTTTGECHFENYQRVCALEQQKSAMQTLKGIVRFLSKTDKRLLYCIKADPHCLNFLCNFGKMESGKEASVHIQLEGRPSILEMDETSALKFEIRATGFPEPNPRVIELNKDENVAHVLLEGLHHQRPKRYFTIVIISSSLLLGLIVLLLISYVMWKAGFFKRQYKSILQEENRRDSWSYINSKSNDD
Assay: Inhibition of alpha4beta1 integrin expressed in human CCRF-CEM cells assessed as cell adhesion to fibronectin after 1 hr by fluorimetry analysis
Assay type: cell-based
measured-parameter: pIC50
Quick note: pIC50 values are minus log10 of concentrations in mol/L.

Enquiry: Identify measured pIC50 associated with `Cc1cccc(C)c1NC(=O)Nc1ccc(CC(=O)N[C@@H](CC(C)C)C(=O)N[C@@H](CC(=O)O)C(=O)N[C@H](C(=O)NCCc2ccccc2)C(C)C)cc1`
Return: 4.44

Enquiry: Identify measured pIC50 associated with `Cc1cccc(C)c1NC(=O)Nc1ccc(CC(=O)NCCCCCCCCCCCCN)cc1`
Return: 3.82

Enquiry: Identify measured pIC50 associated with `Cc1cccc(C)c1NC(=O)Nc1ccc(CC(=O)NCCCCCCCCCCCCNC(=O)CCCC[C@@H]2SC[C@@H]3NC(=O)N[C@@H]32)cc1`
Return: 4.01

Enquiry: Identify measured pIC50 associated with `Cc1cccc(C)c1NC(=O)Nc1ccc(CC(=O)Nc2ccc(OCC(=O)O)c(CCC(=O)NCCCCCCCCCCCCNC(=O)CCCC[C@@H]3SC[C@@H]4NC(=O)N[C@@H]43)c2)cc1`
Return: 4.85

Enquiry: Identify measured pIC50 associated with `Cc1cccc(C)c1NC(=O)Nc1ccc(CC(=O)Nc2ccc(OCC(=O)O)c(CCC(=O)NCCCCCCCCCCCCN)c2)cc1`
Return: 3.91

Enquiry: Identify measured pIC50 associated with `Cc1cccc(C)c1NC(=O)Nc1ccc(CC(=O)Nc2ccc(OCC(=O)OC(C)(C)C)c(CCC(=O)O)c2)cc1`
Return: 4.16

Enquiry: Identify measured pIC50 associated with `Cc1cccc(C)c1NC(=O)Nc1ccc(CC(=O)Nc2ccc(OCC(=O)O)c(CCC(=O)NCCOCCOCCOCCOCCOCCN)c2)cc1`
Return: 3.77

Enquiry: Identify measured pIC50 associated with `Cc1cccc(C)c1NC(=O)Nc1ccc(CC(=O)N[C@@H](CC(C)C)C(=O)N[C@@H](CC(=O)O)C(=O)N[C@H](C(=O)NCCCCCCCCCCCCN)C(C)C)cc1`
Return: 5.59
